# Method notes: chemical genetic growth profiling, strain panel (AID 1159580);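 note: tested at 20 µM; growth read once vehicle control cultures reached saturation at 30 °C; 1 = growth at the plate median or of vehicle wells; lower values mean less growth of the strain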
# Assay conditions: S. cerevisiae deletion strains, growth OD, locus YCL016C, strain dcc1
Screen size: about 5,500 compounds; about 2,000 (36%) were called active. Another 18% or so got no clear call; they are omitted. Cut-off read from the data, not from the text of the source: active = normalized growth mostly below about 0.91 (no sharp cut-off); inconclusive = no clear call, values can overlap the other calls; inactive = mostly above about 0.92. The list shows a part of the results.
Lab note: assign the record to one of active, inactive

Query: Answer briefly: the call reported for "CCCCC1C(=O)N(c2ccccc2)N(c2ccccc2)C1=O" in this assay.
Result: inactive

Query: Another: "O=c1[nH]c2cc(Cl)c(Cl)cc2[nH]c1=O"
Result: inactive

Query: Another: "O=c1c(-c2cc(O)c(O)c(O)c2)coc2cc(O)c(O)c(O)c12"
Result: inactive

Query: Another: CC(=O)O[C@@H]1CC2C(C)(C)[C@H](O)C[C@H](O)[C@]2(C)C2CC[C@@]3(C)[C@H](c4ccoc4)OC(=O)[C@H]4O[C@]43[C@@]21C (some centres not stated)
Result: inactive

Query: Another: CN1CCOC(c2ccccc2)c2ccccc2C1 (configuration not stated)
Result: inactive

Query: Another: CC(=O)CC(c1ccccc1)c1c(O)c2ccccc2oc1=O (configuration not stated)
Result: inactive

Query: Another: "CC1=CCc2c(cc3oc(C)cc(=O)c3c2O)OC1"
Result: inactive

Query: Another: "O=C(O)c1nc2cc(Cl)c(Cl)cc2[nH]c1=O"
Result: inactive

Query: Another: OC1C(O)C(O)C(O)C(O)C1O (configuration not stated)
Result: inactive

Query: Another: "O=c1c2ccccc2[se]n1-c1ccccc1"
Result: active

Query: Another: "O=c1cc(-c2ccc(O)cc2)oc2ccc(O)cc12"
Result: inactive

Query: Another: COc1cc([C@@H]2c3cc4c(cc3C(O[C@@H]3O[C@@H]5CO[C@@H](c6cccs6)OC5[C@H](O)[C@H]3O)C3COC(=O)[C@@H]32)OCO4)cc(OC)c1O (some centres not stated)
Result: inactive

Query: Another: CC(=O)[C@H]1CCC2C3CC=C4C[C@@H](OC(=O)CCC(=O)O)CC[C@]4(C)C3CC[C@@]21C (some centres not stated)
Result: inactive

Query: Another: "NS(=O)(=O)c1cc2c(cc1C(F)(F)F)NCNS2(=O)=O"
Result: inactive

Query: Another: CC(=O)O[C@H]1C[C@H](O[C@H]2[C@@H](O)C[C@H](O[C@H]3[C@@H](O)C[C@H](O[C@H]4CC[C@@]5(C)C(CCC6C5C[C@@H](O)[C@]5(C)[C@@H](C7=CC(=O)OC7)CC[C@]65O)C4)O[C@@H]3C)O[C@@H]2C)O[C@H](C)[C@H]1O[C@@H]1O[C@H](CO)[C@@H](O)[C@H](O)[C@H]1O (some centres not stated)
Result: inactive

Query: Another: CCC(/C=C/[C@@H](C)[C@H]1CCC2C3CC=C4C[C@@H](O)CC[C@]4(C)C3CC[C@@]21C)C(C)C (some centres not stated)
Result: inactive

Query: Another: "COc1ccc(-c2cc(=O)c3c(O)c(OC)c(OC)c(OC)c3o2)cc1"
Result: inactive

Query: Another: "COc1ccc(-c2coc3cc(OC(C)=O)cc(OC(C)=O)c3c2=O)cc1"
Result: inactive

Query: Another: CC[C@]12C=CCN3CC[C@@]4(c5ccc(OC)cc5N(C)C4[C@@](O)(C(=O)OC)[C@@H]1OC(C)=O)[C@@H]32 (some centres not stated)
Result: inactive

Query: Another: CC(C)(C)C(=O)C(Oc1ccc(Cl)cc1)n1cncn1 (configuration not stated)
Result: active

Query: Another: C=C1C(N)CC2CC1C2(C)C (configuration not stated)
Result: inactive

Query: Another: CC[N+]1(C)CCCC(OC(=O)C(O)(c2ccccc2)c2ccccc2)C1 (configuration not stated)
Result: inactive

Query: Another: "O=c1c(-c2ccc(O)cc2)coc2cc(O)cc(O)c12"
Result: inactive

Query: Another: Cn1nnnc1SCC1=C(C(=O)O)N2C(=O)C(NC(=O)C(O)c3ccccc3)C2SC1 (configuration not stated)
Result: inactive

Query: Another: "O=c1cc(-c2cccc(O)c2)oc2ccc(O)cc12"
Result: inactive

Query: Another: "COc1ccc(-c2cc(=O)c3c(OC(C)=O)cc(OC(C)=O)cc3o2)cc1"
Result: inactive

Query: Another: "COc1cc2c3cc1Oc1cc(ccc1O)C[C@@H]1c4c(cc(OC)c(O)c4Oc4ccc(cc4)C[C@@H]3N(C)CC2)CC[N+]1(C)C"
Result: inactive

Query: Another: "NCCc1ccc(O)c(O)c1"
Result: inactive

Query: Another: C=CCc1ccccc1OCC(O)CNC(C)C (configuration not stated)
Result: inactive

Query: Another: "COc1cccc(-c2cc(=O)c3ccc(OC)cc3o2)c1"
Result: inactive

Query: Another: "CC1=NCCc2c1[nH]c1cc(O)ccc21"
Result: inactive

Query: Another: "Nc1nc(N)c2nc(-c3ccccc3)c(N)nc2n1"
Result: inactive

====

Give measured normalized growth for each item. Keep answers brief.
# Method notes: chemical genetic growth profiling, strain panel (AID 1159580);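 note: tested at 20 µM; growth read once vehicle control cultures reached saturation at 30 °C; 1 = growth at the plate median or of vehicle wells; lower values mean less growth of the strain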
# Assay conditions: S. cerevisiae deletion strains, growth OD, locus YDR069C, strain doa4, hits give low values
About 2,000 (36%) of roughly 5,500 compounds were called active. Inconclusive results (about 18%) are left out. The list shows a part of the results.
In your answer, state the number alone without any accompanying words.

Query: What measured normalized growth goes with COC(=O)C1=C(C)NC(C)=C(C(=O)OCC(C)C)C1c1ccccc1[N+](=O)[O-] (stereo unspecified) ?
Result: 0.0857

Query: Another: "CC1=CCc2c(cc3oc(C)cc(=O)c3c2O)OC1"
Result: 0.988

Query: Another: "O=c1oc2ccccc2c(O)c1Cc1c(O)c2ccccc2oc1=O"
Result: 0.994

Query: Another: CC(C)(O)[C@@H]1CC[C@](C)([C@H]2[C@@H](O)C[C@@]3(C)C4C[C@H](O[C@@H]5O[C@H](CO)[C@@H](O)[C@H](O)[C@H]5O)C5C(C)(C)[C@@H](O[C@@H]6OC[C@@H](O)[C@H](O)[C@H]6O)CC[C@@]56C[C@@]46CC[C@]23C)O1 (stereo partly specified)
Result: 0.975

Query: Another: "O=c1[nH]c2cc(Cl)c(Cl)cc2[nH]c1=O"
Result: 0.969

Query: Another: "CCn1cc(C(=O)O)c(=O)c2cc(F)c(N3CCNCC3)cc21"
Result: 0.964

Query: Another: COCCOC(=O)C1=C(C)NC(C)=C(C(=O)OC(C)C)C1c1cccc([N+](=O)[O-])c1 (stereo unspecified)
Result: 0.982

Query: Another: CC(=O)CC(c1ccccc1)c1c(O)c2ccccc2oc1=O (stereo unspecified)
Result: 1

Query: Another: "CC(=O)Nc1ccc(O)cc1"
Result: 1.02

Query: Another: "O=c1c2ccccc2oc2ccccc12"
Result: 0.927

Query: Another: "COC(=O)C1=C(C)NC(C)=C(C(=O)OC)C1c1ccccc1[N+](=O)[O-]"
Result: 0.719

====

Give measured normalized growth for each item. Keep answers brief.
# Method notes: chemical genetic growth profiling, strain panel (AID 1159580);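 note: tested at 20 µM; growth read once vehicle control cultures reached saturation at 30 °C; 1 = growth at the plate median or of vehicle wells; lower values mean less growth of the strain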
# Assay conditions: S. cerevisiae deletion strains, growth OD, locus YNL209W, strain ssb2, hits give low values
The whole screen tested about 5,500 compounds, of which about 2,000 (36%) were called active. Not shown: some 18% with an inconclusive outcome. This is one part of the list.
In your answer, state the number alone without any accompanying words.

Query: What measured normalized growth goes with "CCn1cc(C(=O)O)c(=O)c2cc(F)c(N3CCNCC3)cc21" ?
Result: 0.986

Query: Another: CN1CCOC(c2ccccc2)c2ccccc2C1 (stereo not drawn)
Result: 0.981

Query: Another: "CC(C)Oc1ccc2c(=O)cc(-c3ccccc3)oc2c1"
Result: 0.971

Query: Another: COCCOC(=O)C1=C(C)NC(C)=C(C(=O)OC(C)C)C1c1cccc([N+](=O)[O-])c1 (stereo not drawn)
Result: 1

Query: Another: "O=C1CC[C@]23C=CC(=O)NCCCCNCCCNC(=O)/C=C/c4ccc(c2c4)O[C@@H]3C1"
Result: 1.01

Query: Another: "O=c1oc2ccccc2c(O)c1Cc1c(O)c2ccccc2oc1=O"
Result: 0.999

Query: Another: CN1CCN2c3ccccc3Cc3ccccc3C2C1 (stereo not drawn)
Result: 0.997

Query: Another: "Nc1ccc(C(=O)Oc2ccccc2)c(O)c1"
Result: 0.955

Query: Another: COC(=O)C1=C(C)NC(C)=C(C(=O)OCCN(C)Cc2ccccc2)C1c1cccc([N+](=O)[O-])c1 (stereo not drawn)
Result: 0.978

Query: Another: "CCCN1C[C@H](CSC)C[C@@H]2c3cccc4[nH]cc(c34)C[C@H]21"
Result: 1

Query: Another: "Cn1c(=O)c2[nH]c(C3CCCC3)nc2n(C)c1=O"
Result: 0.996

Query: Another: "CC1=C2C(=CO[C@H](C)[C@H]2C)C(=O)C(C(=O)O)=C1O"
Result: 0.977

Query: Another: C=C1C2CC[C@@]3(C)[C@H](c4ccoc4)OC(=O)C[C@]13O[C@H]1CC(=O)C(C)(C)[C@H](C(O)C(=O)OC)[C@@]21C (stereo partly drawn)
Result: 1.01

Sourced from PubChem BioAssay AID1159580
